Consider the following binders and their measured EC50 (read off the curve) readings.
measuredTarget: T1, VEGF109 (UniProt P15692 214-315, biotinylated where loaded on streptavidin tips)
T1 construct: range 8-109; also called VEGF8-109; biotinylated VEGF109
T1 sequence: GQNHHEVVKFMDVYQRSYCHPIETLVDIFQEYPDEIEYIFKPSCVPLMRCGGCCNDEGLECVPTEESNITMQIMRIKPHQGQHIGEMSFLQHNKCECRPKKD
assayName: phage ELISA, 5 ug/ml VEGF coated on 384-well Maxisorp, OD 450 nm

Completed entries (count: 2):
{"columns": ["binder", "EC50 (read off the curve)"],
 "data": [
  ["phage-displayed chagasin VEGF variant 4-66-F6 (designed binder, not shown: phage coat protein g3 (p3)) MADPNRFRGKDLGSLEMSHKVTKAHNGATLTVAVGELVEIQLPSNYFYDGFAWYFEGGTKESPNESMFTVENKYFPNDPGSRLSGAGGTEHFHVTVKAAGTHAVNLTYMAPWLGPSRVLERFTVYLKANGGSGGSGGS", "~0.007 OD 268 nM"],
  ["phage-displayed chagasin VEGF variant 2-40-D4 (designed binder, not shown: phage coat protein g3 (p3)) MADPNRFRGKDLGSLEMSHKVTKAHNGATLTVAVGELVEIQLPSNLQNAGFAWYFEGGTKESPNESMFTVENKYFPLSLYASETGAGGTEHFHVTVKAAGTHAVNLTYMNPNWGPDYWIERFTVYLKANGGSGGSGGS", "~0.003 OD 268 nM"]
]}

API: the following record is the query input.
Just so you know, measured EC50 (read off the curve) for phage-displayed chagasin VEGF variant 1-90-H6 (designed binder, not shown: phage coat protein g3 (p3)) MADPNRFRGKDLGSLEMSHKVTKAHNGATLTVAVGELVEIQLPSNLQDSGFAWYFEGGTKESPNESMFTVENKYFPSGTTGKSNGAGGTEHFHVTVKAAGTHAVNLTYMFKSRGLMVPLERFTVYLKANGGSGGSGGS came out at ~0.006 OD 268 nM
